Read-out record for c-MET (Homo sapiens, UniProt P08581): pKi
pKi: −log10 of the molar value.

INSERT INTO assay_data (compound, measurement) VALUES
  ('CC(=O)Nc1ccc(-c2cnc(N)c(-c3nc4cnccc4n3-c3cccc(F)c3F)c2)cc1 [I-D-13]', '≥ 7.00'),
  ('CN(C)Cc1ccc(-c2cnc(N)c(-c3nnnn3-c3cccc(Cl)c3Cl)c2)cc1 [I-A-79]', '≥ 7.00'),
  ('CN(C)Cc1ccc(-c2cnc(N)c(-c3nnnn3-c3cc(Cl)cc(Cl)c3)c2)cc1 [I-A-590]', '6.00 to 7.00'),
  ('CC(C)c1cccc(-c2cnc(N)c(-c3nnnn3-c3cccc(F)c3F)c2)c1 [I-A-236]', '6.00 to 7.00'),
  ('Nc1ncc(-c2nccs2)cc1-c1nnnn1-c1cccc(F)c1F [I-A-539]', '6.00 to 7.00');

Provide value of pKi for this record tested with c-MET (Homo sapiens, UniProt P08581): Nc1ncc(-c2cnn(C3CCNCC3)c2)cc1-c1nnnn1-c1c(F)ccc(Cl)c1F [I-A-382] ≥ 7.00

Report pKi for Nc1ncc(-c2cnn([C@@H]3CCOC3)c2)cc1-c1nnnn1-c1cccc(F)c1F [I-A-419] tested on c-MET (Homo sapiens, UniProt P08581). ≥ 7.00

====

Hi! I'm sharing some Ki results obtained with UniProt:P08581.

Sample answers from the record:
INSERT INTO measurements (molecule, measured_parameter, measurement) VALUES
  ('COCCN1CCC(n2cc(-c3cnc(N)c(-c4nnnn4-c4cccc(Cl)c4F)c3)cn2)CC1 [I-A-477]', 'Ki', '≤ 100 nM'),
  ('Cc1ccc(Cl)cc1-n1nnnc1-c1cc(-c2ccc(CN(C)C)cc2)cnc1N [I-A-579]', 'Ki', '100 to 1000 nM'),
  ('CC(=O)Nc1ccc(-c2cnc(N)c(-c3nnnn3-c3cccc(F)c3F)c2)c(F)c1 [I-A-126]', 'Ki', '≤ 100 nM'),
  ('CN1CCN(c2ccc(-c3cnc(N)c(-c4nc5cccnc5n4-c4cccc(Cl)c4F)c3)cc2)CC1 [I-D-17]', 'Ki', '100 to 1000 nM');

Report Ki for CN1CCN(c2ccc(-c3cnc(N)c(-c4nn(C)cc4-c4cccc(Cl)c4Cl)c3)cc2)CC1 [I-B-21] please. 100 to 1000 nM

====

Assay system UniProt P08581; read-out recorded as pKi.
pKi: −log10 of the molar value.

Illustrative cases are given below, each with its answer.
INSERT INTO results (molecule_smiles, system_name, measurement) VALUES
  ('COCCOC(=O)Nc1cccc(-c2cnc(N)c(-c3nnnn3-c3cccc(F)c3F)c2)c1', 'UniProt P08581', '6.00 to 7.00'),
  ('CN(C)Cc1ccc(-c2cnc(N)c(-c3nnnn3-c3c(F)ccc(F)c3F)c2)cc1', 'UniProt P08581', '≥ 7.00');

Suppose we examine the compound "Nc1ncc(-c2ccc(CN3CC[C@@H](O)C3)cc2)cc1-c1nnnn1-c1cccc(Cl)c1Cl" ; what pKi value has been reported? ≥ 7.00

====

system_name: c-MET (Homo sapiens, UniProt P08581)
Sequence (P08581 25-1390): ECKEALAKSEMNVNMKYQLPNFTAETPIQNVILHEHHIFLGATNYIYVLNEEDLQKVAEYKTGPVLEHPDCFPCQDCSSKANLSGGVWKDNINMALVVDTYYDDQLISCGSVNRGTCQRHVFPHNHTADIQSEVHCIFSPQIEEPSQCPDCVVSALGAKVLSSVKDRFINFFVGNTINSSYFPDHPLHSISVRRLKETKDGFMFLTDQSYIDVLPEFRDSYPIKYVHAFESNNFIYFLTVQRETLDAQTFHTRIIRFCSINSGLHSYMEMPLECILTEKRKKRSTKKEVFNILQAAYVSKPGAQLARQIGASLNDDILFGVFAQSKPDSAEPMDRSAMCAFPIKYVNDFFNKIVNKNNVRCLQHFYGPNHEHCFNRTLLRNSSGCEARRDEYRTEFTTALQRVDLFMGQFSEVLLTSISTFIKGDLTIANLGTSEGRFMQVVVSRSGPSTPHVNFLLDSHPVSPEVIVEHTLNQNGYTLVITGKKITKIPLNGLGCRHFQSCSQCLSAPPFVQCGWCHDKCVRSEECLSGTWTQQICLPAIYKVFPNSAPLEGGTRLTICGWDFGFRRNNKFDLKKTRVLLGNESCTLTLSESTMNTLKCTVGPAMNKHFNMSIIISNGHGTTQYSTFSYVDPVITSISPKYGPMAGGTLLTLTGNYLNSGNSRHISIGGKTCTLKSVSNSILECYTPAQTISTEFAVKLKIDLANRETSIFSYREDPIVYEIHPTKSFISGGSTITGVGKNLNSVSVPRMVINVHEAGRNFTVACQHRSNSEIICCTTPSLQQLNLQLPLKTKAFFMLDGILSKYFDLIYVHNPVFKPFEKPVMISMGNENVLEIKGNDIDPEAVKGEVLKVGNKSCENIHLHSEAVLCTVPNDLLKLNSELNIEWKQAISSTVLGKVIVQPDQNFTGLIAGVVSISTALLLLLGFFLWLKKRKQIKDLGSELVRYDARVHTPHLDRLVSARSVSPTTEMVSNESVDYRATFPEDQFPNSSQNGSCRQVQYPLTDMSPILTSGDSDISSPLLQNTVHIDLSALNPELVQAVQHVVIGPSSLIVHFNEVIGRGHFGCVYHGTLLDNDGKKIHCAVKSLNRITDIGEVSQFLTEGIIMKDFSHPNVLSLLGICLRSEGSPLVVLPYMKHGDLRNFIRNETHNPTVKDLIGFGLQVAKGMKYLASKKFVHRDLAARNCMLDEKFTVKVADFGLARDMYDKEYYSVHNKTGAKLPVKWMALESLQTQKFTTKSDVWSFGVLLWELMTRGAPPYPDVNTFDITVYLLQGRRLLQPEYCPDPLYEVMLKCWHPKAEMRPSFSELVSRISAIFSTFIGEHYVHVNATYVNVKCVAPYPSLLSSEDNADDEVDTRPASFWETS
pKi: −log10 of the molar value.
This section presents molecules with their documented pKi values.

Example cases with answers are listed next.
INSERT INTO measurements (molecule, measured_parameter, measurement) VALUES
  ('CN(C)CCn1cc(-c2cnc(N)c(-c3nnnn3-c3cccc(Cl)c3Cl)c2)cn1 [I-A-410]', 'pKi', '≥ 7.00'),
  ('Nc1ncc(-c2ccc3c(c2)OC(F)(F)O3)cc1-c1nnnn1-c1cccc(F)c1F [I-A-285]', 'pKi', '6.00 to 7.00'),
  ('Nc1ncc(-c2ccc(CN3CCCC3)cc2)cc1-c1nnnn1-c1cc(F)cc(F)c1Cl [I-A-601]', 'pKi', '≥ 7.00');

Consider now this further molecule.
Lab request: please report pKi under test system c-MET (Homo sapiens, UniProt P08581) for Nc1ncc(-c2cnn(CCN3CCCC3)c2)cc1-c1nnnn1-c1cccc(F)c1F [I-A-407] ≥ 7.00

====

pKi: −log10 of the molar value.
Observed pKi, system c-MET (Homo sapiens).

Worked examples follow.
INSERT INTO measurements (molecule_smiles, measurement) VALUES
  ('Nc1ncc(-c2cccc(O)c2)cc1-c1nnnn1-c1cccc(F)c1F', '≥ 7.00'),
  ('CCN1CCC(n2cc(-c3cnc(N)c(-c4nncn4-c4cccc(Cl)c4F)c3)cn2)CC1', '≥ 7.00');

Kindly consider the entry below.
Missing value: pKi, c-MET (Homo sapiens), entry "Nc1ncc(-c2ccn(C3CCNCC3)c2)cc1-c1nnnn1-c1cccc(F)c1F" . Fill in? ≥ 7.00
